Target: Metabotropic glutamate receptor 7 (Rattus norvegicus, UniProt P35400)
Sequence (P35400 whole entry): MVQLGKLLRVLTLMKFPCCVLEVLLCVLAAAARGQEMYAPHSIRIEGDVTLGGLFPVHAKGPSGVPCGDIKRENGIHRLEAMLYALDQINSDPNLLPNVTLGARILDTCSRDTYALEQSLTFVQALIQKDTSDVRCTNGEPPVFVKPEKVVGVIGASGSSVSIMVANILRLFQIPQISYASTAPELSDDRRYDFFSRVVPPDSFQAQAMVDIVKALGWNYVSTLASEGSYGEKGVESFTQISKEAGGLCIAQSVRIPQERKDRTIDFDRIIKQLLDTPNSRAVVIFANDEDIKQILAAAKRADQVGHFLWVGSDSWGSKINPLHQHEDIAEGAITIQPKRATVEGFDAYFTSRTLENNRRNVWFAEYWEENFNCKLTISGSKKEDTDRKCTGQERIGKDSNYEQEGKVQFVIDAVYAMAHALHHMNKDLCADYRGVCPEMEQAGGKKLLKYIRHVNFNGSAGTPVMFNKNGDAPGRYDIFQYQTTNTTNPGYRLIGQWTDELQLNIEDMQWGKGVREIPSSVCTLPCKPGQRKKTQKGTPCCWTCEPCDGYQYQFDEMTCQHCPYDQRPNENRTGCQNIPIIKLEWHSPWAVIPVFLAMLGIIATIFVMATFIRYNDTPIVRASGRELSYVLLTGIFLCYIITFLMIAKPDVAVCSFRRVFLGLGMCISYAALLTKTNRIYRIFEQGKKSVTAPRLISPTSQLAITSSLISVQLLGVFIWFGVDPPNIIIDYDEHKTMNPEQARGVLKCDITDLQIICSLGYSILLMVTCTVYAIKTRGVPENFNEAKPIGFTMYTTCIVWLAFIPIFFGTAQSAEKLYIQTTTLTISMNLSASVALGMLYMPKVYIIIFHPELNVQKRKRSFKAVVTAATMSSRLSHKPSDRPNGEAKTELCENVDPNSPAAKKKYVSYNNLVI
Assay: Negative allosteric modulation of rat mGlu7 receptor expressed in HEK cells co-expressing Galpha15 assessed as reduction in calcium mobilization incubated for 142 secs prior to glutamate addition for 120 secs followed by L-AP4 addition and measured after 40 secs by Fluo-4 AM dye based fluorescence assay
Type: functional, cell-based
Details: read-out: IC50
pIC50: −log10 of the molar value.
Assign pIC50 to each entry below.

The examples below pair each entry with its known result.
>  <Entry smiles>
COc1ccc(-c2nnc(-c3cc(OC(F)(F)F)ccc3-n3cncn3)o2)cc1F

>  <Result>
< 4.52

$$$$
>  <Entry smiles>
COc1ccc(-c2nnc(-c3cc(OC(F)(F)F)ccc3-c3cnn(C)c3)o2)cc1OC

>  <Result>
< 4.52

$$$$
>  <Entry smiles>
COc1ccc(-c2cn(-c3cc(OC(F)(F)F)ccc3-n3cncn3)nn2)cc1OC

>  <Result>
≤ 5.00

$$$$
>  <Entry smiles>
COc1ccc(-c2nnc(-c3cc(OC(F)(F)F)ccc3N3CCN(C)CC3)o2)cc1OC

>  <Result>
< 4.52

$$$$
>  <Entry smiles>
FC(F)(F)Oc1ccc(-n2cncn2)c(-c2nnc(-c3ccc4c(c3)OC(F)(F)O4)o2)c1

>  <Result>
< 4.52

$$$$

Go through the list and state pIC50 for each entry.
1. COc1cc(-c2nnc(-c3cc(OC(F)(F)F)ccc3-n3cncn3)o2)cc(F)c1OC
2. COc1ccc(-c2nnc(-c3cc(OC(F)(F)F)ccc3-n3cncn3)o2)cn1
3. COc1ccc(-c2nnc(-c3cc(OC(F)(F)F)ccc3-c3ccncc3)o2)cc1OC
4. COc1cc(-c2nnc(-c3cc(OC(F)(F)F)ccc3-n3cncn3)o2)ccc1F
5. COc1cc(-c2nnc(-c3cc(OC(F)(F)F)ccc3-n3cncn3)o2)ccn1
6. COc1ccc(-c2nsc(-c3cc(OC(F)(F)F)ccc3-n3cncn3)n2)cc1OC

Reply:
1: < 4.52; 2: < 4.52; 3: ≤ 5.00; 4: < 4.52; 5: ≤ 5.00; 6: ≤ 5.00
